Just for reference, ChEMBL document CHEMBL1150333 is where these values come from.

# test name: Cytotoxicity against primary mouse hepatocytes after 48 hrs by neutral red assay
# Type: cell-based, Hepatocyte
# details: read-out: TC50
measured endpoint: CC50 at 48 h

Look up and state reported CC50 at 48 h for COC1=C2[C@H]3NCC[C@]2(C[C@H](O)[C@@H]1O)c1c(ccc(OC)c1O)[C@H]3O [TAZOPSINE]
43.7 µM

Assign CC50 at 48 h to the following record: `COC1=C2[C@H]3NCC[C@]2(C[C@H](O)[C@@H]1O)c1c(ccc(OC)c1O)[C@@H]3O[C@@H]1O[C@H](CO)[C@@H](O)[C@H](O)[C@H]1O`
> 390 µM

Look up and state reported CC50 at 48 h for COC1=C2[C@@H]3Cc4ccc(OC)c(O)c4[C@]2(CCN3)C[C@H](O)[C@@H]1O [SINOCOCULINE]
62.2 µM

Tell me CC50 at 48 h reported for `COC1=C2[C@H]3NCC[C@]2(C[C@H](O)[C@@H]1O)c1c(ccc(OC)c1O)[C@@H]3O`
388 µM

Return reported CC50 at 48 h. Input molecule: COc1cc(NC(C)CCCN)c2ncccc2c1 (stereo not given) [PRIMAQUINE]
70.5 µM
